# METHOD: in vitro
# Format: in vitro ADME
# MEASUREMENT_CONDITIONS: human, Caco-2, pH 7.4, Test 1, 10 μM, 2 hours, pH 7.4; read-out: Average Papp, B→A
READOUT: Papp B→A at 2 hours, 10 μM (×10⁻⁶ cm/s)
Provide the reading as a plain figure in ×10⁻⁶ cm/s.

// known answers, use as guide
COCCOCCOCCOCCOCCOCCOCCOCCOc1ccc2[nH]c(C(=O)N3CCN(c4ncccc4NC(C)C)CC3)cc2c1 :: 43.6
COCCOCCOCCOc1ccc2[nH]c(C(=O)N3CCN(c4ncccc4NC(C)C)CC3)cc2c1 :: 33.9
COCCOCCOCCOCCOCCOCCOc1ccc2[nH]c(C(=O)N3CCN(c4ncccc4NC(C)C)CC3)cc2c1 :: 34.1
COCCOCCOCCOCCOCCOc1ccc2[nH]c(C(=O)N3CCN(c4ncccc4NC(C)C)CC3)cc2c1 :: 39.1
COCCOCCOCCOCCOc1ccc2[nH]c(C(=O)N3CCN(c4ncccc4NC(C)C)CC3)cc2c1 :: 34.8

Then this compound:
Query :: For the compound `COCCOCCOCCOCCOCCOCCOCCOc1ccc2[nH]c(C(=O)N3CCN(c4ncccc4NC(C)C)CC3)cc2c1` , give its reported Papp B→A at 2 hours, 10 μM.
Result :: 36.6

---

# METHOD: Caco-2 permeability characterization (plate certification)
# MEASUREMENT_CONDITIONS: human, Caco-2, (B-to-A) Papp, Test 2, Passage Number 59
READOUT: Papp B→A
Answer format: number, then unit.

Query :: For the molecule `C[C@H]1O[C@@H](O[C@H]2[C@@H](O)C[C@H](O[C@H]3[C@@H](O)C[C@H](O[C@H]4CC[C@@]5(C)[C@H](CC[C@@H]6[C@@H]5C[C@@H](O)[C@]5(C)[C@@H](C7=CC(=O)OC7)CC[C@]65O)C4)O[C@@H]3C)O[C@@H]2C)C[C@H](O)[C@@H]1O` , give its reported Papp B→A.
Result :: 16.9 ×10⁻⁶ cm/s

---

Below: a set of entries, each annotated with reported efflux ratio at 2 hours, 10 μM.
# METHOD: in vitro
# Format: in vitro ADME
# MEASUREMENT_CONDITIONS: human, Caco-2, pH 7.4, Test 2; read-out: Efflux Ratio (B→A/A→B)
Write the number on its own, no unit after it.

// known answers, use as guide
COCCOCCOCCOCCOCCOc1ccc2[nH]c(C(=O)N3CCN(c4ncccc4NC(C)C)CC3)cc2c1 [mPEG5-O-Delavirdine, 5-O-mPEG5-Delavirdine] :: 1.2
COCCOCCOCCNc1ccc2[nH]c(C(=O)N3CCN(c4ncccc4NC(C)C)CC3)cc2c1 [5-mPEG3-NH-Delavirdine] :: 1.3
COCCOCCNc1ccc2[nH]c(C(=O)N3CCN(c4ncccc4NC(C)C)CC3)cc2c1 [5-mPEG2-NH-Delavirdine] :: 0.9
COCCOCCOCCOc1ccc2[nH]c(C(=O)N3CCN(c4ncccc4NC(C)C)CC3)cc2c1 [mPEG3-O-Delavirdine, 5-O-mPEG3-Delavirdine] :: 0.7
COCCNc1ccc2[nH]c(C(=O)N3CCN(c4ncccc4NC(C)C)CC3)cc2c1 [5-mPEG1-NH-Delavirdine, 5-mPEG-NH-Delavirdine] :: 0.8

Then this compound:
Query :: For the compound COCCOCCOCCOCCOCCOCCOCCOc1ccc2[nH]c(C(=O)N3CCN(c4ncccc4NC(C)C)CC3)cc2c1 [mPEG7-O-Delavirdine, 5-O-mPEG7-Delavirdine] , give its reported efflux ratio at 2 hours, 10 μM.
Result :: 1.7
